These entries and their values trace back to the supplement of paper PMC6555819.

Test system: PXR homodimer (NR concentration 270 nM)
Experimental Protocol: PBM binding z-score (relative to random genomic background probes); higher = stronger binding; sequences stand for … in GC…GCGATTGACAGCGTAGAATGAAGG
Property: PBM binding z-score

Query Sequence: CCGGCTAGGTCAATGGTCAGCTAAAGCAGCTCGC
System Under Test: PXR homodimer (NR concentration 270 nM)
Reading: -0.491

Query Sequence: ATATTTAGGTTACATCCGGGTCATTCAGGCTATG
System Under Test: PXR homodimer (NR concentration 270 nM)
Reading: 3.78

Query Sequence: ATATGTAGGTTATCTGGTCATTCAGTTTGCGCAT
System Under Test: PXR homodimer (NR concentration 270 nM)
Reading: 1.14

Query Sequence: ACTCTTAGTTGAGACGAGGGCAACCGATAGGTTG
System Under Test: PXR homodimer (NR concentration 270 nM)
Reading: -0.122

Query Sequence: CCTACTGGGCCACGAGAGGTCATTGATTCAGTGA
System Under Test: PXR homodimer (NR concentration 270 nM)
Reading: 2.52

Query Sequence: ATACCAAGGTGATCGTGAGGTCGTTGCTACTAAC
System Under Test: PXR homodimer (NR concentration 270 nM)
Reading: 1.05

Query Sequence: TCTATTACTTGATTAGGGCAACCGAAACAGCGGA
System Under Test: PXR homodimer (NR concentration 270 nM)
Reading: 0.132

Query Sequence: CGAACTGGGTCATCCAGGACAGTGAATACATTGA
System Under Test: PXR homodimer (NR concentration 270 nM)
Reading: 0.0976

Query Sequence: TCTTGTAGATCAGCCGGTTAAGAAAGCTGGCCAA
System Under Test: PXR homodimer (NR concentration 270 nM)
Reading: -0.447

Query Sequence: CAAACTAGGTCAAAGCTCAAAGTCGAGCCAACCA
System Under Test: PXR homodimer (NR concentration 270 nM)
Reading: 0.241

Query Sequence: TTACGAAGGTGAAGGTCGTTGATCCCTCTGTAGA
System Under Test: PXR homodimer (NR concentration 270 nM)
Reading: -0.113

Query Sequence: TCTTGTAGATCAGCGGGTTAAGAAAGCTGGCCAA
System Under Test: PXR homodimer (NR concentration 270 nM)
Reading: -0.369

Query Sequence: CCGACTGGGGAAAGGTTACCATAACGCACAGCCA
System Under Test: PXR homodimer (NR concentration 270 nM)
Reading: 0.0491

Query Sequence: TTACCAAGTTGAGCTGAGGTCGTTGATCCAACTC
System Under Test: PXR homodimer (NR concentration 270 nM)
Reading: 0.614

Query Sequence: ATATGTAGGTTAAGGGTGATTCAGGTTGGTTCGC
System Under Test: PXR homodimer (NR concentration 270 nM)
Reading: 1.19

Query Sequence: TCTATTAGTTGATTAGGTCAACCGAAACAGCGGA
System Under Test: PXR homodimer (NR concentration 270 nM)
Reading: 0.923

Query Sequence: ATCTCTAGGTAACAAGTTCAGTGACAGAGAGGAC
System Under Test: PXR homodimer (NR concentration 270 nM)
Reading: 1.61

Query Sequence: CGTGCTAGGTCATGGTCAGCTAATCTACAGTATG
System Under Test: PXR homodimer (NR concentration 270 nM)
Reading: -0.399

Query Sequence: CAAATTAGGTCACGAAAGGTCAAAGTCGAATGAC
System Under Test: PXR homodimer (NR concentration 270 nM)
Reading: 2.64

Query Sequence: CTGACTGGGGCAAAGGTTACCATACTCAGTACGA
System Under Test: PXR homodimer (NR concentration 270 nM)
Reading: 0.266

Query Sequence: ACTCGAAGGACAAAGGTCAGAGCTACGCCAGTGA
System Under Test: PXR homodimer (NR concentration 270 nM)
Reading: 0.743

Query Sequence: TCTTGTAGATCAAAGGTTAGGAAAGCCGAAGCCT
System Under Test: PXR homodimer (NR concentration 270 nM)
Reading: -0.482

Query Sequence: CTACCAAGGTGAACAAGGTCGTTTATTACTATTC
System Under Test: PXR homodimer (NR concentration 270 nM)
Reading: 2.38

Query Sequence: TGTCAAAGTTCAAAGCTAACGTAAGTATCCACAC
System Under Test: PXR homodimer (NR concentration 270 nM)
Reading: 3.01

Query Sequence: GAGACTGGGGCATCAGCAGGTTACCATAACTTAA
System Under Test: PXR homodimer (NR concentration 270 nM)
Reading: 0.295

Query Sequence: AGAACGAAGGCAATGAGTTGATAGCACGGGTGGC
System Under Test: PXR homodimer (NR concentration 270 nM)
Reading: -0.132

----------
Tested on: RXRa DBDmut IVT, anti-RXR (DBD mutation: RXRa K156A/R161A, NR concentration 90 nM)
Experimental Protocol: PBM binding z-score (relative to random genomic background probes); higher = stronger binding; sequences stand for … in GC…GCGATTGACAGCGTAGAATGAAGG
Property: PBM binding z-score

Query Sequence: ATCGAAAGGTAGACGAGGTGAGTATACACCGTTT
Reading: -0.531
--
Query Sequence: CCTTACGGGTCACTCCCGGTTATAGCATCGGAGT
Reading: 1.43
--
Query Sequence: CCGACTGGGGCATAAGGTTACCGTAAGCCAGCCC
Reading: -0.367
--
Query Sequence: TCGAGTAGGTAAGTCGGGGCATTCAGCCAACATA
Reading: 0.129
--
Query Sequence: GCAGACAGGTGAAACCCAGGTAACTCAGGGTGGC
Reading: -0.915
--
Query Sequence: CAAACTAGGTCAAGAGGTCGAAGTCCGCTTCCCG
Reading: 1.72

----------
System: THRa homodimer (NR concentration 90 nM)
Experimental Protocol: PBM binding z-score (relative to random genomic background probes); higher = stronger binding; sequences stand for … in GC…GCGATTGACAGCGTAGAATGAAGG
Binning rule for recorded PBM binding z-score: low: < 0.4; intermediate: ≥ 0.4 and < 1; high: ≥ 1

Query Sequence: CCTACTGTGCCACGAAAGGTCATTGATTCAGTGA
System Under Test: THRa homodimer (NR concentration 90 nM)
Label Class: high

Query Sequence: AGTAGTTGGTCAGCTGAGGTCACACACAATTCGG
System Under Test: THRa homodimer (NR concentration 90 nM)
Label Class: high

Query Sequence: AGAATGAGGTTATTAAGATCAGCGAATTGCGGTC
System Under Test: THRa homodimer (NR concentration 90 nM)
Label Class: intermediate

Query Sequence: ACAGATAGGTGAGTGAAGGTAACTCAGCTGGACG
System Under Test: THRa homodimer (NR concentration 90 nM)
Label Class: low

Query Sequence: TTATATAGGTAAAGGTGAAAGTCGAACGATATGA
System Under Test: THRa homodimer (NR concentration 90 nM)
Label Class: low

Query Sequence: CCTACTGGGCCAAGGTCAGTGATCAGTCAAAGCA
System Under Test: THRa homodimer (NR concentration 90 nM)
Label Class: high

Query Sequence: CCAGACAGGTGAGAAGATAACTCAGCCTCGATTA
System Under Test: THRa homodimer (NR concentration 90 nM)
Label Class: low

Query Sequence: TCTATTAGTTGATTAGGGCACCCGAAACAGCGGA
System Under Test: THRa homodimer (NR concentration 90 nM)
Label Class: intermediate

Query Sequence: GCTAGCAGGCCATTTGGGTCACTCAGTGACGGGC
System Under Test: THRa homodimer (NR concentration 90 nM)
Label Class: low

Query Sequence: AGAATGAGGTTAAGAGCAGGGAAACAGAATACAT
System Under Test: THRa homodimer (NR concentration 90 nM)
Label Class: low

Query Sequence: CAAACTAGGTCAATAGGTCAAAGTCCGCTTCCCG
System Under Test: THRa homodimer (NR concentration 90 nM)
Label Class: high

Query Sequence: CCAGACAGGTTAGAAGGTAACTCAGCCTCGATTA
System Under Test: THRa homodimer (NR concentration 90 nM)
Label Class: low

Query Sequence: ATAATGAGGTTATACGTAGATCAGGGAAGAAAGT
System Under Test: THRa homodimer (NR concentration 90 nM)
Label Class: intermediate

Query Sequence: ACTAGCAGGCCAAGTTCGGGTCACTCAAACAAAG
System Under Test: THRa homodimer (NR concentration 90 nM)
Label Class: high

Query Sequence: TCTGCTAGGTCAGTTCGTCAGCTAACGAGCTGCC
System Under Test: THRa homodimer (NR concentration 90 nM)
Label Class: low

Query Sequence: CAAACTAGGTCACACAGGTCAAAGTCCGTGCGTA
System Under Test: THRa homodimer (NR concentration 90 nM)
Label Class: high

Query Sequence: TCTAGTTGGTCACAGAGGTCACACACGACGGGTA
System Under Test: THRa homodimer (NR concentration 90 nM)
Label Class: high

Query Sequence: GCGACTGGGGCATCAGCAGGTTACCTTAACTTAA
System Under Test: THRa homodimer (NR concentration 90 nM)
Label Class: high

Query Sequence: GCAGACAGGTGAAACGCAGGGAACTCAGGGTGGC
System Under Test: THRa homodimer (NR concentration 90 nM)
Label Class: low

Query Sequence: AATACAGGGTCATCGTAGGCCATAGTACGCACAG
System Under Test: THRa homodimer (NR concentration 90 nM)
Label Class: high

Query Sequence: GATACAGGGTCAGCTAGAGGCCAAAGTATGGAAA
System Under Test: THRa homodimer (NR concentration 90 nM)
Label Class: intermediate

Query Sequence: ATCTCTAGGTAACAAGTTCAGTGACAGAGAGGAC
System Under Test: THRa homodimer (NR concentration 90 nM)
Label Class: high

Query Sequence: CCTACTGGGCTATTCAGAGGTCATTGATCATATG
System Under Test: THRa homodimer (NR concentration 90 nM)
Label Class: high

Query Sequence: CCTATTAGTTGGCCATAAGGGCAACCGAAGCTCG
System Under Test: THRa homodimer (NR concentration 90 nM)
Label Class: intermediate

Query Sequence: TAGCCTAGGTCATGCGGTCCAGTATAGTGTCGGC
System Under Test: THRa homodimer (NR concentration 90 nM)
Label Class: high

Query Sequence: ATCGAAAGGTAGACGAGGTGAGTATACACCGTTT
System Under Test: THRa homodimer (NR concentration 90 nM)
Label Class: low
